ASSAY TEXT: chemical genetic growth profiling, strain panel (AID 1159580);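 also: tested at 20 µM; growth read once vehicle control cultures reached saturation at 30 °C; 1 = growth at the plate median or of vehicle wells; lower values mean less growth of the strain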
CONDITION INFO: S. cerevisiae deletion strains, growth OD, locus YKL068W, hits give low values
The campaign covered roughly 5,500 compounds. About 2,000 (36%) were called active. Roughly 18% stayed inconclusive and do not appear here. Some of the results follow.
OBSERVABLE: normalized growth

• O=C(Oc1ccccc1C(=O)O)c1ccccc1O = 0.978 (inactive)
• CCn1nc(C(=O)O)c(=O)c2cc3c(cc21)OCO3 = 0.999 (inactive)
• C[C@@H]1CC[C@@]23CCC4(C)[C@@](C=CC5[C@@]6(C)CCC(=O)C(C)(C)C6CC[C@]54C)(OC2=O)C3[C@H]1C (stereo partly drawn) = 1.02 (inactive)
• C[C@H]1[C@H](C)CC[C@]2(C(=O)O)CC[C@]3(C)C(=CCC4[C@@]5(C)C[C@@H](O)[C@H](O)[C@@](C)(CO)C5[C@H](O)C[C@]43C)[C@H]12 (stereo partly drawn) = 1.23 [resistant] (active)

Below are 2 compounds. Give each one its normalized growth.
1. CC1(C)C(O)CC(=O)C2(C)C1CC(O)C1(C)C2CCC2(C)C(c3ccoc3)OC(=O)C3OC321 (stereo not drawn)
2. Nc1nc(/C(=C/CC(=O)O)C(=O)N[C@@H]2C(=O)N3C(C(=O)O)=CCS[C@H]23)cs1

1: 1.01 (inactive); 2: 0.997 (inactive)

For each entry beneath this line, provide reported normalized growth.
1. CC(=O)O[C@@H]1CC2C(C)(CC[C@H](O)C2(C)C)C2CC[C@]3(C)C(=CC(=O)O[C@H]3c3ccoc3)C21C (stereo partly drawn)
2. CC1Cc2ccccc2N1NC(=O)c1ccc(Cl)c(S(N)(=O)=O)c1 (stereo not drawn)
3. CSc1nc(NC(C)C)nc(NC(C)C)n1
4. C[C@@H](CO)NC(=O)C1C=C2c3cccc4[nH]cc(c34)C[C@H]2N(C)C1 (stereo partly drawn)
5. COc1ccc(-c2cc(=O)c3c(O)cc(O)c(-c4cc(-c5cc(=O)c6c(O)cc(O)cc6o5)ccc4OC)c3o2)cc1
6. CSCCC(N)C(=O)NC(CC(C)C)C(=O)NC(Cc1ccccc1)C(=O)O (stereo not drawn)

1: 0.997 (inactive); 2: 0.994 (inactive); 3: 1 (inactive); 4: 0.993 (inactive); 5: 1.01 (inactive); 6: 0.987 (inactive)

# normalized growth of CC1=CC(=O)C(C(C)C)=CC1=O = 0.961 (inactive)
